Reference source for all entries: the supplement of paper PMC11061612

- Test system: BPH-1 (Non-Cancerous)
- TEST DETAILS: combination Emax (second highest fraction inhibited in the dose matrix, 72 h); higher = more inhibition; extreme values may be limits of the assay
MEASURED ATTRIBUTE: combination Emax
Reply briefly: the number, and no unit.

COMPOUND | combination Emax
COc1cccc(OCCCN)c1-c1cc(Nc2cnc(C#N)cn2)n[nH]1 [Prexasertib] + C=CCn1c(=O)c2cnc(Nc3ccc(N4CCN(C)CC4)cc3)nc2n1-c1cccc(C(C)(C)O)n1 [AZD1775] (first compound max 1 µM, partner max 1 µM) | 0.809
Cc1cc2ncnn2cc1Nc1ncc2c(n1)n(C1CCOCC1)c(=O)n2C [AZD7648] + C=CCn1c(=O)c2cnc(Nc3ccc(N4CCN(C)CC4)cc3)nc2n1-c1cccc(C(C)(C)O)n1 [AZD1775] (first compound max 10 µM, partner max 1 µM) | 0.53
NC1(C(=O)N[C@@H](CCO)c2ccc(Cl)cc2)CCN(c2ncnc3[nH]ccc23)CC1 [Capivasertib] + CC(=O)c1c(C)c2cnc(Nc3ccc(N4CCNCC4)cn3)nc2n(C2CCCC2)c1=O [Palbociclib] (first compound max 10 µM, 7x7, partner max 10 µM) | 0.518

Note: attention shifts to another entry.
Incoming: Can you look up the measured combination Emax of COc1cccc(OCCCN)c1-c1cc(Nc2cnc(C#N)cn2)n[nH]1 [Prexasertib] + C[C@@H]1COCCN1C2=NC(=NC(=C2)C3(CC3)[S@](=N)(=O)C)C4=C5C=CNC5=NC=C4 [AZD6738] (first compound max 1 µM, 7x7, partner max 10 µM) for me?
Outgoing: 0.356

---

In this section we review reported Bliss excess values for a set of compounds.
- Tested on: KMRC-20 (Kidney Carcinoma);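 note: after 72 h of two-drug dosing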
- TEST DETAILS: Bliss excess, mean over the matrix (fraction); higher = more synergy
Lab note: jot down the number only; don't add units.

Would you please look over these solved cases?
COMPOUND | MEASURED ATTRIBUTE | MEASURED NUMBER
Cc1c2c(nn1C)CSCc1cc(n(C)n1)CSc1cc(c3ccccc3c1)OCCCc1c(C(=O)O)n(C)c3c-2c(Cl)ccc13 [AZD5991] + Cn1cnc2c(F)c(Nc3ccc(Br)cc3Cl)c(C(=O)NOCCO)cc21 [Selumetinib] (first compound max 1 µM, 7x7, partner max 3 µM) | Bliss excess | 0.0054
CN(CCO)CC[C@H](CSc1ccccc1)Nc1ccc(S(=O)(=O)NC(=O)c2ccc(N3CCC([C@@H](O)c4ccccc4-c4ccc(Cl)cc4)CC3)cc2)cc1S(=O)(=O)C(F)(F)F [AZD4320] + C[C@@H]1COCCN1C2=NC(=NC(=C2)C3(CC3)[S@](=N)(=O)C)C4=C5C=CNC5=NC=C4 [AZD6738] (first compound max 1 µM, 7x7, partner max 10 µM) | Bliss excess | -0.0289

Now examine the next entry.
Incoming: // returns reported Bliss excess for input COc1nnc2ccc(N3CCC(c4ccc(OCCN5CCN(C)C(=O)[C@H]5C)cc4)CC3)nn12 [AZD5153] + CC1(C)CCC(CN2CCN(c3ccc(C(=O)NS(=O)(=O)c4ccc(NCC5CCOCC5)c([N+](=O)[O-])c4)c(Oc4cnc5[nH]ccc5c4)c3)CC2)=C(c2ccc(Cl)cc2)C1 [Venetoclax] (first compound max 1 µM, 7x7, partner max 1 µM)
Outgoing: -0.0096
